Consider the following molecules and their measured normalized growth readings.
- METHOD: chemical genetic growth profiling, strain panel (AID 1159580);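 note: tested at 20 µM; growth read once vehicle control cultures reached saturation at 30 °C; 1 = growth at the plate median or of vehicle wells; lower values mean less growth of the strain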
- MEASUREMENT_CONDITIONS: S. cerevisiae deletion strains, growth OD, locus YMR231W, strain pep5, hits give low values
About 2,000 (36%) of roughly 5,500 compounds were called active. Another 18% or so got no clear call; they are omitted. The list shows a part of the results.

The cases that follow already have their normalized growth on record.
>  <MOLECULE>
C=C1[C@H]2CC[C@@]3(C)[C@H](c4ccoc4)OC(=O)C[C@]13O[C@H]1C[C@H](O)C(C)(C)[C@H](CC(=O)OC)[C@]12C

>  <normalized growth>
1.01 (inactive)

$$$$
>  <MOLECULE>
CC(=O)Nc1ccccc1

>  <normalized growth>
0.986 (inactive)

$$$$
>  <MOLECULE>
C=C1C2CC[C@@]3(C)[C@H](c4ccoc4)OC(=O)C[C@]13O[C@H]1CC(O)C(C)(C)C(CC(=O)OC)[C@@]21C (stereo not given in full)

>  <normalized growth>
0.971 (inactive)

$$$$
>  <MOLECULE>
C[C@H](N)[C@H](O)c1cccc(O)c1

>  <normalized growth>
1.02 (inactive)

$$$$
>  <MOLECULE>
CC1CCC2(OC1)OC1CC3C4CCC5C[C@@H](O)CCC5(C)C4=CCC3(C)C1[C@@H]2C (stereo not given in full)

>  <normalized growth>
0.998 (inactive)

$$$$

Q: Returns the measured normalized growth for the input molecule. Input: "Nc1ccncc1"
Result: 0.995 (inactive)

Q: Returns the measured normalized growth for the input molecule. Input: "COc1ccc(C(=O)N2CCCC2=O)cc1"
Result: 0.978 (inactive)

Q: Returns the measured normalized growth for the input molecule. Input: C[C@H](CCC(=O)O)[C@H]1CCC2C3C(CC[C@@]21C)[C@@]1(C)CC[C@@H](O)C[C@H]1C[C@H]3O (stereo not given in full)
Result: 0.993 (inactive)
